tested on: NEK7; details: concentration: 1 μM, replicates: in singlicate; n = 1;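 note: KINOMEscan kinase panel screen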
observable: %Inh
The reply must contain the numeric value and, after it, the unit.

Recorded %Inh for `CC(C)(C)c1ccc(-n2cnc3c(N)ncnc32)cc1` on NEK7 was 16%

Recorded %Inh for `Clc1ccc(-c2cc(-c3c[nH]nc3-c3ccccn3)ccn2)cc1` on NEK7 was 0%

Recorded %Inh for `CCn1c(-c2ccncc2)nc2cnccc21` on NEK7 was 6%

----------
Form field: %Inh (one value per entry).
system: TRKA; construct: gene NTRK1; conditions: concentration: 1 μM, replicates: in singlicate; n = 1
Only the number, expressed in %, is required.

Worked examples follow.
[
  {
    "compound": "O=C(CCO)NCCn1ccc2ncnc(Nc3ccc(Oc4cccc(C(F)(F)F)c4)c(Cl)c3)c21",
    "data-value": 0
  },
  {
    "compound": "FC(F)(F)c1cc(Nc2nccc(-c3c(-c4ccc(Cl)cc4)nn4ncccc34)n2)ccc1Cl",
    "data-value": 0
  }
]

Consider the additional compound presented here.
Recorded %Inh for `O=C(NCCCN1CCCC1=O)c1cnc(NCc2cc(Cl)ccc2Cl)nc1NC1CCNCC1` on TRKA was 69
